# Assay details: Toxicity liver stage against HepG2, at 10uM
# Assay type: cell-based
# Design: test concentration 10 uM, cell line HepG2-A16-CD81EGFP
# Condition context: human, HepG2-A16-CD81EGFP cells; read-out: INHIBITION
Would you kindly list cytotoxicity at 10 µM for each of these compounds?
Give the quantity in %, number only.

Task: // query cytotoxicity at 10 µM value for entry COCCCN(C)c1nc(-c2ccncc2)nc2c1CCN(C(C)=O)C2
Output: -1.16

Task: // query cytotoxicity at 10 µM value for entry CN(C)C(C(=O)NCCn1cccc1)c1cccc(F)c1 (stereo unspecified)
Output: -1.23

Task: // query cytotoxicity at 10 µM value for entry CC(C)n1nc(CN2CCOCC2)c2c1CN(C(=O)c1ccno1)C2
Output: 2.62

Task: // query cytotoxicity at 10 µM value for entry O=C(NCCn1cccn1)c1ccn(-c2cccc(F)c2)n1
Output: -4.58

Task: // query cytotoxicity at 10 µM value for entry Cc1cs/c(=N\C(=O)Cn2nc(N3CCC(C)CC3)ccc2=O)[nH]1
Output: 1.34

Task: // query cytotoxicity at 10 µM value for entry CC1(c2ccccc2)CCC(=O)N(CCN2CCCOC2=O)C1 (stereo unspecified)
Output: -3.99

Task: // query cytotoxicity at 10 µM value for entry O=C1NCc2ccccc2CC12CCN(Cc1ccccc1Cl)CC2
Output: 5.86

Task: // query cytotoxicity at 10 µM value for entry COc1ccc(CN2CC[C@H](c3nnc(-c4ccco4)o3)C2)cc1
Output: 0.0623

Task: // query cytotoxicity at 10 µM value for entry CCc1noc(CNC2CCCN(Cc3noc(C4CC4)n3)C2)n1 (stereo unspecified)
Output: -25.6

Task: // query cytotoxicity at 10 µM value for entry CSc1cccc(NC(=O)N2CCC3(CCC(=O)N(C4CC4)C3)CC2)c1
Output: 9.27

Task: // query cytotoxicity at 10 µM value for entry Cc1[nH]ncc1CCCNC(=O)N1CCN2CCCCC2C1 (stereo unspecified)
Output: 5.8
